meta.source: patent US4554272A

- experimentalSystem: CCK receptor (pancreas) (Rattus norvegicus, UniProt P30551)
- Construct: The whole pancreas of a male Sprague-Dawley rat
- Sequence (P30551 1-444): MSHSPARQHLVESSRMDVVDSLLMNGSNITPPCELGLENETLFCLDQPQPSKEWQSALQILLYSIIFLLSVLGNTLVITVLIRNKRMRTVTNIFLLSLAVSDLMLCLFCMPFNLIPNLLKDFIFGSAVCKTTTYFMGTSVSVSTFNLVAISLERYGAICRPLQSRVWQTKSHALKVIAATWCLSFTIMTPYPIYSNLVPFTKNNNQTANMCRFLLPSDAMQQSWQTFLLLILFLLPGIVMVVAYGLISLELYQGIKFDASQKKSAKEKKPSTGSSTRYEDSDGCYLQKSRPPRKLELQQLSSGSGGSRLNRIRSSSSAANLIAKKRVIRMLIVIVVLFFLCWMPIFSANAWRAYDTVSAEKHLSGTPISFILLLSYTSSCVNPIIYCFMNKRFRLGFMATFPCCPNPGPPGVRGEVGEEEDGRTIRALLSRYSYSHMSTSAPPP
- protocolText: CCK Receptor Binding (pancreas)
- measurementParameters: rat pancreas membranes; 125I-CCK-33, 37° C., 30 minutes; read-out: I-CCK-8 Pancreas IC50
Recorded IC50 for the following molecules
A number alone suffices; assume µM.

Some molecules with known IC50 results, for comparison:
molecule="CN1C(=O)[C@H](Cc2c[nH]c3ccccc23)n2c(nc3ccccc3c2=O)-c2ccccc21 [Example 19, hydrate]" unitsofmeasure=µM observed=104
molecule="O=C1Cn2c(nc3ccccc3c2=O)-c2ccccc2N1 [Example 15]" unitsofmeasure=µM observed=100
molecule="C[C@H]1C(=O)Nc2ccccc2-c2nc3ccccc3c(=O)n21 [Example 14]" unitsofmeasure=µM observed=100
molecule="O=C1Nc2ccccc2-c2nc3ccccc3c(=O)n2[C@H]1Cc1ccc(O)cc1 [Example 16, hydrate]" unitsofmeasure=µM observed=100
molecule="O=C1Nc2ccccc2-c2nc3ccccc3c(=O)n2[C@@H]1Cc1c[nH]c2ccccc12 [Example 13, hydrate]" unitsofmeasure=µM observed=67

Kindly review the next molecule as well.
Note to self: IC50 recorded for O=C1Nc2ccccc2-c2nc3ccccc3c(=O)n2[C@H]1Cc1c[nH]c2ccccc12 [*, reference compound] was 76
